# Tested on: VSVΔG-SW (S glycoprotein of the SARS-CoV-2 Wuhan variant)
# TEST_DETAILS: microbe, parasite or virus in culture
# Type: cell-based
# EXPERIMENTAL_CONDITIONS: Severe acute respiratory syndrome coronavirus 2, read-out: IC50 against VSVΔG-SW
READOUT_NAME: pIC50
pIC50 here: minus log base 10 of the concentration, concentration in moles per litre.

Recorded pIC50 of "Cc1cccc(NC(=O)CS(=O)(=O)c2nc(-c3ccccc3)cn2-c2ccc(Cl)cc2)c1C" , please.
6.22
